# Assay Procedure: total protein half-life in vivo (active degradation + dilution); higher = more stable protein
# Study Conditions: E. coli NCM3722 delta-smpB; growth: N-lim chemostat; doubling time 6 h

| Sequence Code | total protein half-life in vivo [h] |
| --- | --- |
| MGQRIPVTLGNIAPLSLRPFQPGRIALVCEGGGQRGIFTAGVLDEFMRAQFNPFDLYLGTSAGAQNLSAFICNQPGYARKVIMRYTTKREFFDPLRFVRGGNLIDLDWLVEATASQMPLQMDTAARLFDSGKSFYMCACRQDDYAPNYFLPTKQNWLDVIRASSAIPGFYRSGVSLEGINYLDGGISDAIPVKEAARQGAKTLVVIRTVPSQMYYTPQWFKRMERWLGDSSLQPLVNLVQHHETSYRDIQQFIEKPPGKLRIFEIYPPKPLHSIALGSRIPALREDYKLGRLCGRYFLATVGKLLTEKAPLTRHLVPVVTPESIVIPPAPVANDTLVAEVSDAPQANDPTFNNEDLA | 1.19 |

Source of measurements: the supplement of paper PMC11246515
